Collected logD values appear next to each entry.
Assay: Lipophilicity, log D of the compound
Type: physicochemical
Conditions: octanol/water
REPORTED_PROPERTY: logD

> print(dat)
                              line.notation  measured
1  O=C(c1cc(Cc2c[nH]c(=O)c3cc(Cl)cn23)ccc1F)N1CCCNCC1      0.58
2  O=C(c1cc(Cc2c[nH]c(=O)c3cc(Cl)c(Cl)n23)ccc1F)N1CCCNCC1      0.91
3  O=C(c1cc(Cc2c[nH]c(=O)c3cccn23)ccc1F)N1CCCNCC1     -0.89

----------
System: HeLa
Test: Antiproliferative activity against BRCA1-deficient human HeLa cells after 7 days by celltiter-blue assay
Format: functional
Details: 168 h
REPORTED_PROPERTY: CC50 (µM)

> print(dat)
                              line.notation  reported.property  result.units  measured
1  O=C(c1cc(Cc2c[nH]c(=O)c3cc(Cl)c(Cl)n23)ccc1F)N1CCC2(CCN2)CC1               CC50            µM       2.3
2  O=C(c1cc(Cc2c[nH]c(=O)c3cc(Cl)c(Cl)n23)ccc1F)N1CCCNCC1               CC50            µM      0.17
3  O=C(c1ncc[nH]1)N1CCN(C(=O)c2cc(Cc3c[nH]c(=O)c4cc(Cl)c(Cl)n34)ccc2F)CC1               CC50            µM       0.5
4  CN(C)C(=O)C(=O)N1CCN(C(=O)c2cc(Cc3c[nH]c(=O)c4cc(Cl)c(Cl)n34)ccc2F)CC1               CC50            µM       1.8
